// values below are reported growth
- Tested on: MDA-MB-435 melanoma
- measurement.protocol: NCI-60 one-dose screen, 48 h (100 = growth as untreated, 0 = no growth, -100 = all killed)
- reported.conditions: 10 µM unless noted
- Method: Growth inhibition of the MDA-MB-435 human Melanoma tumor cell line is measured as a screen for anti-cancer activity. Cells are grown in 96 well plates and exposed to the test compound for 48 hours. Compounds are tested at a single concentration, which is 10^-5 M for most compounds. The reported endpoint is percent growth (GI% or GIPRCNT), where numbers from 0 - 100% represent growth inhibition, and numbers from -100% - 0 represent cell death. […]
This is part of a sample that, as a whole, favours compounds with a hit. Of some 83,000 tested, about 20% had one in any assay.
Numeric answer only, unit % assumed.

These solved cases illustrate the format of a correct answer.
{"molecule": "OCCNC(=S)Nc1ccc(-c2nc(N3C[C@H]4CC[C@@H](C3)O4)c3cccn3n2)cc1", "growth (%)": 0.28}
{"molecule": "Nc1cc2c(cc1Br)-c1c(C(=O)O)cccc1C2O (centres undefined)", "growth (%)": 105}
{"molecule": "Cc1cc(C)n(CC(=O)Nc2ccc(-c3nc4ccccc4s3)cc2)n1", "growth (%)": 107}

Could you now consider this next molecule?
Per the record, NN1C(=O)CSC1=S has growth of 100

----------
- Tested on: SF-268 CNS
- measurement.protocol: NCI-60 one-dose screen, 48 h
- reported.conditions: 10 µM unless noted
Compounds without any hit were thinned out: in the full panel of roughly 83,000, 20% have a hit. The source made the active and inactive calls. How the source made its calls: active means growth percent below 10; inactive means the rest.
Respond only with the outcome that fits, drawn from yes = active, no = inactive

{"molecule": "C[C@@H](Oc1cc(-c2cnn(C3CCNCC3)c2)cnc1N)c1c(Cl)ccc(F)c1Cl", "class.label": "yes"}
{"molecule": "COC(=O)[C@]12CC[C@@H](C)[C@H](C)[C@@H]1C1=CC[C@@H]3[C@@]4(C)C(C#N)=CC(C)=C4CC[C@@]3(C)[C@]1(C)CC2", "class.label": "no"}
{"molecule": "O=C1C=CC2(NN=C(c3ccccc3)N2c2ccccc2)c2cccc(O)c21 (stereo unspecified)", "class.label": "no"}

Name the outcome recorded for CCN(CC)Cc1cc(Nc2cc(C(F)(F)F)c(C#N)c3nc4ccccc4n23)ccc1O in the assay.
no

Name the outcome recorded for COC(=O)CC[C@@H](C)[C@H]1CC[C@H]2C3CC[C@@H]4C[C@@H]5CC[C@]4(C)[C@@]3(O5)[C@H](Br)[C@@H](Br)[C@]12C (stereo partly specified) in the assay.
no

Name the outcome recorded for NC(=O)c1c(OCc2c(F)cc(Br)cc2F)nsc1NC(=O)NCCCCN1CCCC1 in the assay.
no

Name the outcome recorded for COc1cc(-c2nc(C(=O)Nc3ccc(C)cc3)nn2-c2ccc(F)c(F)c2)cc(OC)c1OC in the assay.
no

Name the outcome recorded for COC(=O)[C@H](C)NC(=O)[C@@H](OC)[C@@H]1Cc2cc3cc(OC4CC(OC5CC(O)C(O)C(C)O5)C(O)C(C)O4)c(C)c(O)c3c(O)c2C(=O)[C@H]1OC1CC(OC2CC(OC3CC(C)(O)C(O)C(C)O3)C(O)C(C)O2)C(O)C(C)O1 (stereo partly specified) in the assay.
no

----------
- System: HT29 colon
- measurement.protocol: NCI-60 one-dose screen, 48 h
- reported.conditions: 10 µM unless noted
The panel holds about 83,000 compounds, 20% with a hit somewhere; the sample as a whole holds those more often. The source made the active and inactive calls. Rule for the calls: active = growth percent below 10; inactive = the rest.
Respond only with the outcome that fits, drawn from active, inactive

{"smiles.text": "Cc1cc(-c2cc(O)ccc2Cl)cc2nnc(Nc3ccc(OCCN4CCCC4)cc3)nc12", "class.label": "active"}

Name the outcome recorded for COc1cc2c(cc1O)c(=O)n(CCN(C)C)c1c3cc4c(cc3ncc21)OCO4 in the assay.
active

Name the outcome recorded for C[C@@H](Oc1cc(C(=O)Nc2ccc(C(=O)N3CCN(C)CC3)cc2)nnc1N)c1c(Cl)ccc(F)c1Cl in the assay.
active

Name the outcome recorded for COc1cc2ncnc(Nc3ccc(F)c(Cl)c3)c2cc1NC(=O)/C=C/CN1CCCCC1 in the assay.
active

Name the outcome recorded for O=C(Nc1ccc(Nc2ncnc3sc4c(c23)CCOC4)cc1)Nc1ccc(Cl)c(C(F)(F)F)c1 in the assay.
inactive
